Provide the reported residual activity of each item.
biological target: NAD-dependent histone deacetylase SIR2 (Saccharomyces cerevisiae S288c); assay: In vitro inhibition of sirtuin 2 was evaluated using yeast whole cell lysates at 75 uM; values are per cent of control
Give the value in % but do not write % after it.

Lookup: Look up residual activity: "O=c1ccc2c(ccc3ccccc32)o1"
Found: 73

Lookup: Look up residual activity: "O=C1CCCc2c(ccc3ccccc23)O1"
Found: 82

Lookup: Look up residual activity: "O=C1CCc2ccccc2O1"
Found: 15

Lookup: Look up residual activity: "O=C1CCc2c(ccc3c4c(ccc23)OC(=O)CC4)O1"
Found: 87

----------
biological target: Saccharomyces cerevisiae; experiment: Toxicity against Saccharomyces cerevisiae assessed as growth inhibition in complete medium
recorded_metric: IC50 (µM)
Give the value in µM but do not write µM after it.

Lookup: Look up IC50: "CC(C)(C)OC(=O)NCCOCCOc1cc2ccccc2c2c1OC(=O)CC2"
Found: 86

Lookup: Look up IC50: "NC(=O)CCc1c(O)ccc2ccccc12"
Found: 125

Lookup: Look up IC50: "O=C1CCc2c(ccc3ccccc23)S1"
Found: 25

----------
biological target: NAD-dependent histone deacetylase SIR2 (Saccharomyces cerevisiae S288c); assay: In vitro inhibition of sirtuin 2 was evaluated using yeast whole cell lysates at 75 uM; values are per cent of control
recorded_metric: residual activity

Lookup: Look up residual activity: "O=C1CCc2c(ccc3cc(O)ccc23)O1"
Found: 85%

Lookup: Look up residual activity: "COC(=O)CCc1c(O)ccc2ccccc12"
Found: 75%

Lookup: Look up residual activity: CCOC(=O)C1Cc2c(ccc3ccccc23)OC1=O (centres undefined)
Found: 66%

Lookup: Look up residual activity: "O=C1CCc2cc3ccccc3cc2O1"
Found: 85%

Lookup: Look up residual activity: "O=C1CCc2ccc3ccccc3c2O1"
Found: 87%

Lookup: Look up residual activity: "O=C(O)CCc1c(O)ccc2ccccc12"
Found: 87%

Lookup: Look up residual activity: "O=C1CCc2c(c3oc(=O)ccc3c3ccccc23)O1"
Found: 83%

Lookup: Look up residual activity: "COc1ccc2c3c(ccc2c1)OC(=O)CC3"
Found: 84%

Lookup: Look up residual activity: "O=C1CCc2c(ccc3ccccc23)N1"
Found: 92%

Lookup: Look up residual activity: "NC(=O)CCc1c(O)ccc2ccccc12"
Found: 80%

Lookup: Look up residual activity: "O=C1CCc2c(c3c(c4ccccc24)CCC(=O)O3)O1"
Found: 80%

Lookup: Look up residual activity: "O=c1ccc2ccccc2o1"
Found: 74%

Lookup: Look up residual activity: CC1Cc2c(ccc3ccccc23)OC1=O (centres undefined)
Found: 94%

Lookup: Look up residual activity: "O=C1Cc2ccccc2O1"
Found: 89%

----------
target: NAD-dependent histone deacetylase SIR2 (Saccharomyces cerevisiae S288c); test: Selectivity index was reported as the ratio of the MGC to IC50 value
Please assign condition not met whenever SI is at or above 20, and condition met whenever it is below.

Lookup: Below 20 on SI? Entry "NC(=O)CCc1c(O)ccc2ccccc12"
Found: condition not met

Lookup: Below 20 on SI? Entry CC1Cc2c(ccc3ccccc23)OC1=O (centres undefined)
Found: condition met

Lookup: Below 20 on SI? Entry "COc1cc2ccccc2c2c1OC(=O)CC2"
Found: condition not met

Lookup: Below 20 on SI? Entry "O=C1CCc2cc3ccccc3cc2O1"
Found: condition met

Lookup: Below 20 on SI? Entry "O=C1CCc2c(c3oc(=O)ccc3c3ccccc23)O1"
Found: condition not met

Lookup: Below 20 on SI? Entry "O=C1CCc2c(ccc3ccc(O)cc23)O1"
Found: condition met

Lookup: Below 20 on SI? Entry "O=C1CCc2c(c(OCc3ccccc3)cc3ccccc23)O1"
Found: condition not met

Lookup: Below 20 on SI? Entry "COc1cc2c(c3ccccc13)CCC(=O)O2"
Found: condition not met

Lookup: Below 20 on SI? Entry "O=C1CCc2c(c3c(c4ccccc24)CCC(=O)O3)O1"
Found: condition met

Lookup: Below 20 on SI? Entry "O=C1CCc2c(ccc3c(O)cccc23)O1"
Found: condition not met

Lookup: Below 20 on SI? Entry "O=C1CCc2c(c(O)cc3ccccc23)O1"
Found: condition not met

Lookup: Below 20 on SI? Entry "COc1ccc2c3c(ccc2c1)OC(=O)CC3"
Found: condition met

Lookup: Below 20 on SI? Entry "O=C1CCc2ccc3ccccc3c2O1"
Found: condition not met

// provenance: ChEMBL document CHEMBL1148278
